Measured kon, listed per entry for reference.
- system tested: T1, recombinant human CTLA4-his protein (Acro biosystems, Cat#CT4-H5229) (human, UniProt P16410 37-162)
- T1 construct: bought recombinant protein; not shown: his tag
- T1 sequence (looked up): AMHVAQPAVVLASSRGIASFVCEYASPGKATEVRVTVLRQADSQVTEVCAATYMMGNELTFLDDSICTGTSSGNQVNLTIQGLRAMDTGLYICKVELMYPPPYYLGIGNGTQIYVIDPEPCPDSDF
- assay name: BLI, Octet; antibody from cell supernatant on AHC sensor, CTLA4-his as analyte
Value expressed in M⁻¹ s⁻¹; do not type the unit.

Below, each entry is followed by its recorded kon result.
binder: huC1D1-V9 (antibody, human IgG4 S228P, kappa, V domains shown, humanized IgG4/kappa; tested as 293F cell supernatant on Octet; also called hu CTLA4 C1D1-V9) VH: EVQLVESGGGLVQPGRSLRLSCTASGFTFSDNWMNWVRQAPGKGLEWVAQIRNKPYNYETYYSDSVKGRFTISRDDSKSIVYLQMNSLKTEDTAVYYCTGGMDYWGQGTTVTVSS VL: DIQMTQSPSSLSASVGDRVTITCGASEIIYGALNWYQQKPGKVPKLLIYGATNLADGVPSRFSGSGSGTDFTLTISSLQPEDVATYYCQKILSPPPWTFGGGTKVEIKR
quantity kind: kon
reported: 310000

binder: huC1D1-V1 (antibody, human IgG4 S228P, kappa, V domains shown, humanized IgG4/kappa; tested as 293F cell supernatant on Octet; also called huCTLA4 C1D1-V1) VH: EVQLVESGGGLVQPGRSLRLSCTASGFTFSDNWMNWVRQAPGKGLEWVAQIRNKPYNYETYYSDSVKGRFTISRDDSKSIVYLQMNSLKTEDTAVYYCTGGMDYWGQGTTVTVSS VL: DIQMTQSPSSLSASVGDRVTITCGASEIIYGALNWYQQKPGKSPKLLIYGATNLADGMPSRFSGSGSGRDYTLTISSLQPEDVATYYCQKILSPPPWTFGGGTKVEIKR
quantity kind: kon
reported: 250000

In plain terms, huC1D1-V5 (antibody, human IgG4 S228P, kappa, V domains shown, humanized IgG4/kappa; tested as 293F cell supernatant on Octet; also called hu CTLA4 C1D1-V5) VH: EVQLVESGGGLVQPGRSLRLSCTASGFTFSDNWMNWVRQAPGKGLEWVAQIRNKPYNYETYYSDSVKGRFTISRDDSKSIVYLQMNSLKTEDTAVYYCTGGMDYWGQGTTVTVSS VL: DIQMTQSPSSLSASVGDRVTITCGASEIIYGALNWYQQKPGKSPKLLIYGATNLADGVPSRFSGSGSGTDFTLTISSLQPEDVATYYCQKILSPPPWTFGGGTKVEIKR has a documented kon of 229000
